biological target: GTPase KRas (Homo sapiens, UniProt P01116); experiment: Inhibition of full-length human KRas4B (amino acids 1 to 188)-SOS interaction assessed as inhibition of SOS-mediated nucleotide release activity
Sequence (P01116 whole entry, the tested form may be a part): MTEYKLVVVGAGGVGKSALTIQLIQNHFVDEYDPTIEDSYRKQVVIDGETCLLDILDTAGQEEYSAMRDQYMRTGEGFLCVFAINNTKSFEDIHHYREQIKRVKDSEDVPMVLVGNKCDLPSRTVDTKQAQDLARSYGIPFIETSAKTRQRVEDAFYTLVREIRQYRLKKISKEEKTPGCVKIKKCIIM

mol_smiles | IC50 / µM
Cc1[nH]c2cc(Cl)cc(Cl)c2c1CCN | 155
